Data credit: patent US6376510B1

System: anesthetized rats (evoked responses of anterior tibial muscle)
experiment_summary: In vivo neuromuscular block and cardiovascular side effects, anesthetized rat (Example 8, Table 3)
condition_summary: rat, in vivo
Listing of recorded VB (vagal block) by entry.
Give the value, in units of %, as a plain number.

Below, each entry is followed by its recorded VB (vagal block) result.
[[record]]
compound = "CC(=O)Oc1ccc(C[N+]2(C)C3CCCC2CC(OC(=O)CCCCCC(=O)OC2CC4CCCC(C2)[N+]4(C)Cc2ccc(OC(C)=O)c(OC(C)=O)c2)C3)cc1OC(C)=O.[Br-].[Br-] (stereo not shown)"
value_type = "VB (vagal block)"
unit_abbreviation = "%"
value_reported = 0

[[record]]
compound = "CC(=O)Oc1ccc(C[N+]2(C)C3CCCC2CC(OC(=O)CCCC(=O)OC2CC4CCCC(C2)[N+]4(C)Cc2ccc(OC(C)=O)c(OC(C)=O)c2)C3)cc1OC(C)=O.[Br-].[Br-] (stereo not shown)"
value_type = "VB (vagal block)"
unit_abbreviation = "%"
value_reported = 0

[[record]]
compound = "CC(=O)Oc1ccc(C[N+]2(C)C3CCCC2CC(OC(=O)CCCCC(=O)OC2CC4CCCC(C2)[N+]4(C)Cc2ccc(OC(C)=O)c(OC(C)=O)c2)C3)cc1OC(C)=O.[Br-].[Br-] (stereo not shown)"
value_type = "VB (vagal block)"
unit_abbreviation = "%"
value_reported = 5

[[record]]
compound = "CCC(=O)Oc1ccc(C[N+]2(C)C3CCCC2CC(OC(=O)C2CCC2C(=O)OC2CC4CCCC(C2)[N+]4(C)Cc2ccc(OC(=O)CC)c(OC(=O)CC)c2)C3)cc1OC(=O)CC.[Br-].[Br-] (stereo not shown)"
value_type = "VB (vagal block)"
unit_abbreviation = "%"
value_reported = 0

[[record]]
compound = "CCC(=O)Oc1ccc(C[N+]2(C)C3CCCC2CC(OC(=O)CCCCCC(=O)OC2CC4CCCC(C2)[N+]4(C)Cc2ccc(OC(=O)CC)c(OC(=O)CC)c2)C3)cc1OC(=O)CC.[Br-].[Br-] (stereo not shown)"
value_type = "VB (vagal block)"
unit_abbreviation = "%"
value_reported = 2


**Query** Given the entry CC(=O)Oc1ccc(C[N+]2(C)C3CCCC2CC(OC(=O)CCCCCCC(=O)OC2CC4CCCC(C2)[N+]4(C)Cc2ccc(OC(C)=O)c(OC(C)=O)c2)C3)cc1OC(C)=O.[Br-].[Br-] (stereo not shown) , report its measured VB (vagal block).
**Result** 60

**Query** Given the entry CC(=O)Oc1ccc(C[N+]2(C)C3CCCC2CC(OC(=O)C2CCC2C(=O)OC2CC4CCCC(C2)[N+]4(C)Cc2ccc(OC(C)=O)c(OC(C)=O)c2)C3)cc1OC(C)=O.[Br-].[Br-] (stereo not shown) , report its measured VB (vagal block).
**Result** 2

---

Test system: anesthetized rats (evoked responses of anterior tibial muscle)
experiment_summary: In vivo neuromuscular block and cardiovascular side effects, anesthetized rat (Example 8, Table 3)
condition_summary: rat; at 80-85% neuromuscular blocking dose
value_type: ΔH (change in heart rate) (%)
Give the value, in units of %, as a plain number.

[[record]]
molecule = "COc1cc(C[N+]2(C)[C@@H]3CC[C@H]2C[C@@H](OC(=O)C2CCC2C(=O)O[C@H]2C[C@H]4CC[C@@H](C2)[N+]4(C)Cc2ccc(OC(C)=O)c(OC)c2)C3)ccc1OC(C)=O.[Br-].[Br-] (stereo partly drawn)"
value_type = "ΔH (change in heart rate)"
unit_abbreviation = "%"
value_reported = 0

[[record]]
molecule = "C[N+]1(Cc2ccccc2Br)[C@@H]2CC[C@H]1C[C@@H](OC(=O)CCCC(=O)O[C@H]1C[C@H]3CC[C@@H](C1)[N+]3(C)Cc1ccccc1Br)C2.[Br-].[Br-] (stereo partly drawn) [reference compound]"
value_type = "ΔH (change in heart rate)"
unit_abbreviation = "%"
value_reported = 0


Here's the next entry for you.
**Query** Form field - read-out: ΔH (change in heart rate); system: anesthetized rats (evoked responses of anterior tibial muscle); submitted item: COc1cc(C[N+]2(C)[C@@H]3CC[C@H]2C[C@@H](OC(=O)CCCCCCCCCC(=O)O[C@H]2C[C@H]4CC[C@@H](C2)[N+]4(C)Cc2cc(OC)c(OC(C)=O)c(OC)c2)C3)cc(OC)c1OC(C)=O.[Br-].[Br-] (stereo partly drawn)
**Result** 0
